# Tested On: Ram seminal vesicle microsomal cyclooxygenase (Ovis aries)
# Sequence (P05979 25-600): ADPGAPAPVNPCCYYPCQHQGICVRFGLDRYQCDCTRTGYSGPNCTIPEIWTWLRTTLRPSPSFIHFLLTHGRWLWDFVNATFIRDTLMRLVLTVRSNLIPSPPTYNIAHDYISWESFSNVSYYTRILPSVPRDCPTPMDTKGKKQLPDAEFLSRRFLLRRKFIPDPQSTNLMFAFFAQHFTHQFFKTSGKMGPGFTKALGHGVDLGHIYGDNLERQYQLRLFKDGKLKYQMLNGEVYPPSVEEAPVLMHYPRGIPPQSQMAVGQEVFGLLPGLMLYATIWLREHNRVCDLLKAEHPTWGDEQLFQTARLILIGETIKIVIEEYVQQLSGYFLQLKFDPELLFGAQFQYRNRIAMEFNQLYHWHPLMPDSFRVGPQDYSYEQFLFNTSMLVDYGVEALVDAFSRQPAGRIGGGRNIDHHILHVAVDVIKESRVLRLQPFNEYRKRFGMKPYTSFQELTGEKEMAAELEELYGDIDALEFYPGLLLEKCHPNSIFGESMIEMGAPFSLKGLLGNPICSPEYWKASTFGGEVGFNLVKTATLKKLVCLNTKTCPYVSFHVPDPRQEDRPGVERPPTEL
Recorded Endpoint: pIC50
One number for each entry, as −log10 of the molar value.

Example results:
{"Compound": "Cc1coc2c(C(=O)c3ccccc3)ccc(O)c12 [Compound 6, 3-Methyl-4-hydroxy-7-benzoylbenzofuran]", "Tested On": "Ram seminal vesicle microsomal cyclooxygenase (Ovis aries)", "pIC50": 5.89}
{"Compound": "Cc1coc2c(C(=O)c3ccc(Cl)cc3)cc(C(C)(C)C)c(O)c12 [Compound 19]", "Tested On": "Ram seminal vesicle microsomal cyclooxygenase (Ovis aries)", "pIC50": 5.92}

Parameter requested: pIC50. Apply to each item below.
1. Cc1coc2ccc(C(C)(C)C)c(O)c12 [Compound 12b]
2. Cc1coc2c(C(=O)c3ccccc3)cc(C(C)(C)C)c(O)c12 [Compound 16]
3. Cc1coc2c(C(=O)c3cccs3)ccc(O)c12 [Compound 3]

1. 4.27
2. 5.89
3. 6.10
